Hey, just so you know, these numbers are from ChEMBL document CHEMBL3822355.

System: HeLa
TEST NAME: Anti-cancer activity against human HeLa cells assessed as reduction in cell viability after 72 hrs by WST-1 assay
Assay type: functional, cell-based
I'd be grateful if you could share measured pIC50 for these entries.
Give bare numbers, as −log10 of the molar value.

// solved cases for pIC50 follow
MOLECULAR STRING	pIC50
COC(=O)/C=C/c1ccc(NCc2cc(Br)ccc2O)cc1	5.11
COC(=O)/C=C/c1ccc(NCc2ccc(O)c(O)c2)cc1	4.11
CC(=O)O[C@H]1C(=O)[C@@]2(C)[C@H]([C@H](OC(=O)c3ccccc3)[C@]3(O)C[C@H](OC(=O)[C@H](O)[C@@H](NC(=O)c4ccccc4)c4ccccc4)C(C)=C1C3(C)C)[C@]1(OC(C)=O)CO[C@@H]1C[C@@H]2O	7.70

INPUT: Which pIC50 is listed for COC(=O)/C=C/c1ccc(NCc2ccccc2O)cc1 ?
OUTPUT: 5.14

###

TEST NAME: Cytotoxicity against HEK293 cells assessed as cell viability at 100 uM after 48 hrs by resazurin assay
Type: cell-based
CONDITION INFO: human, read-out: Activity
ENDPOINT LABEL: viability at 48 h, 100 µM (%)
One number for each entry, in %.

>>> print(df.to_string())
                           molecular_string  unit_string  numeric_result
0  COC(=O)/C=C/c1ccc(NCc2cc(Br)cc(Br)c2O)cc1            %             114
1     COC(=O)/C=C/c1ccc(NCc2cc(Cl)ccc2O)cc1            %            92.4
2    COC(=O)/C=C/c1ccc(NCc2ccc(O)c(O)c2)cc1            %             114
3     COC(=O)/C=C/c1ccc(NCc2cccc(OC)c2O)cc1            %             114
4  COC(=O)/C=C/c1ccc(NCc2cc(Cl)cc(Cl)c2O)cc1            %             107

Give viability at 48 h, 100 µM for all compounds that follow.
1. COC(=O)/C=C/c1ccc(NCc2cc(Br)ccc2O)cc1
2. COC(=O)/C=C/c1ccc(NCc2cc([N+](=O)[O-])ccc2O)cc1
3. COC(=O)/C=C/c1ccc(NCc2ccccc2O)cc1
4. COC(=O)/C=C/c1ccc(NCc2cccc(O)c2O)cc1

OUTPUT:
1. 98.1
2. 108
3. 94.4
4. 82.3
